system: BT-549; details: 72 h
Endpoint name: EC50, CellTiter-Glo (µM)

a = Nc1ccn([C@@H]2O[C@H](CO)[C@@H](O)C2(F)F)c(=O)n1
b = CCN(CC)CCCC(C)Nc1ccnc2cc(Cl)ccc12 (stereo not drawn)
# returns the entry with the larger EC50, CellTiter-Glo; inputs a and b Give the label under which the chosen entry appears.
b

* * *

EC50, CellTox Green by entry:
test system: CAL-51; conditions: 72 h
The figure you give is taken to be in nM; do not add the unit.

Observe how each entry below is paired with its result.
{"Smiles input": "CC1(COc2ccc3c(c2)ncn3-c2ccc3cccc(N4CCC(N)CC4)c3n2)COC1", "EC50, CellTox Green / nM": 4710}
{"Smiles input": "CN(C)C(=N)NC(=N)N", "EC50, CellTox Green / nM": 100}
{"Smiles input": "CO[C@@H]1[C@H](N(C)C(=O)c2ccccc2)C[C@H]2O[C@]1(C)n1c3ccccc3c3c4c(c5c6ccccc6n2c5c31)C(=O)NC4", "EC50, CellTox Green / nM": 29.6}
{"Smiles input": "CO[C@@]12[C@H](COC(N)=O)C3=C(C(=O)C(C)=C(N)C3=O)N1C[C@@H]1N[C@@H]12", "EC50, CellTox Green / nM": 307}
{"Smiles input": "CCNC(=O)c1noc(-c2cc(C(C)C)c(O)cc2O)c1-c1ccc(CN2CCOCC2)cc1", "EC50, CellTox Green / nM": 74.6}

Please turn your attention to the following entry.
Form field - read-out: EC50, CellTox Green; system: CAL-51; submitted item: "CC(=O)[C@]1(O)Cc2c(O)c3c(c(O)c2[C@@H](O[C@H]2C[C@H](N)[C@H](O)[C@H](C)O2)C1)C(=O)c1ccccc1C3=O"
148

* * *

system: HCC1143; experiment: normalised response (% of control), CellTiter-Glo; higher = more viable cells (100 = DMSO, 0 = benzethonium chloride kill control); conditions: incubation time: 72 h
Endpoint name: normalised response (%)
Give your result in % as a bare value.

Below, 5 molecules whose answers are already recorded.
{"Molecule": "O=C(O)CNC(=O)c1c(O)c2ccccc2n(Cc2ccccc2)c1=O [IOX-2] (5000 nM)", "Measurement target": "HCC1143", "normalised response (%)": 103}
{"Molecule": "Cc1cc(Nc2nc(N[C@@H](C)c3ncc(F)cn3)ncc2Cl)[nH]n1 [AZD1480] (1 nM)", "Measurement target": "HCC1143", "normalised response (%)": 95.7}
{"Molecule": "COc1cc(Nc2c(C#N)cnc3cc(OCCCN4CCN(C)CC4)c(OC)cc23)c(Cl)cc1Cl [Bosutinib] (1 nM)", "Measurement target": "HCC1143", "normalised response (%)": 93}
{"Molecule": "CNC(=O)c1ccccc1Sc1ccc2c(/C=C/c3ccccn3)n[nH]c2c1 [Axitinib] (1 nM)", "Measurement target": "HCC1143", "normalised response (%)": 102}
{"Molecule": "C=CCN(/C=C1/C(=O)O[C@H](COC)[C@@]2(C)C1=C(O)C(=O)C1=C2[C@H](OC(C)=O)C[C@]2(C)C(=O)CC[C@@H]12)CC=C [Sonolisib] (1000 nM)", "Measurement target": "HCC1143", "normalised response (%)": 102}

May I ask what normalised response has been recorded for CC(C)(C)NC(=O)[C@H]1CC[C@H]2[C@@H]3CC[C@H]4NC(=O)C=C[C@]4(C)[C@H]3CC[C@]12C [Finasteride] (1000 nM) ?
96.6

Dear colleague, I am looking for the recorded normalised response of the following molecule: C/C(=C\c1csc(C)n1)[C@@H]1C[C@@H]2O[C@]2(C)CCC[C@H](C)[C@H](O)[C@@H](C)C(=O)C(C)(C)[C@@H](O)CC(=O)N1 [Ixabepilone] (0.1 nM)
98.5

* * *

tested on: HDQ-P1; test: normalised response (% of control), CellTox Green; higher = less cell death (100 = DMSO, 0 = benzethonium chloride kill control); conditions: incubation time: 72 h
Here, each record is paired with measured normalised response data.
Give the quantity in %, number only.

The examples below pair each entry with its known result.
{"Compound": "Cn1cc(C2=C(c3cn(C4CCN(Cc5ccccn5)CC4)c4ccccc34)C(=O)NC2=O)c2ccccc21 [Enzastaurin] (1000 nM)", "Unit name": "%", "normalised response": 87.7}
{"Compound": "CC(C)(C)NC(=O)[C@H]1CC[C@H]2[C@@H]3CC[C@H]4NC(=O)C=C[C@]4(C)[C@H]3CC[C@]12C [Finasteride] (1000 nM)", "Unit name": "%", "normalised response": 113}
{"Compound": "Cc1nc(C(=O)NCC(=O)O)c(O)c2ccc(Oc3ccccc3)cc12 [FG-4592] (10000 nM)", "Unit name": "%", "normalised response": 114}
{"Compound": "CC(C)C[C@H](NC(=O)[C@@H](COC(C)(C)C)NC(=O)[C@H](Cc1ccc(O)cc1)NC(=O)[C@H](CO)NC(=O)[C@H](Cc1c[nH]c2ccccc12)NC(=O)[C@H](Cc1cnc[nH]1)NC(=O)[C@@H]1CCC(=O)N1)C(=O)N[C@@H](CCCNC(=N)N)C(=O)N1CCC[C@H]1C(=O)NNC(N)=O [Goserelin] (10000 nM)", "Unit name": "%", "normalised response": 62.5}

# ---- query compound ----
Returns the measured normalised response for the input compound. Input: CC[C@H](CO)Nc1nc(NCc2ccccc2)c2ncn(C(C)C)c2n1 [Seliciclib] (100 nM)
105

* * *

Parameter: normalised response. Scope: all listed entries.
test system: CAL-85-1; experiment: normalised response (% of control), CellTox Green; higher = less cell death (100 = DMSO, 0 = benzethonium chloride kill control); details: incubation time: 72 h
The figure you give is taken to be in %; do not add the unit.

# annotated cases, reported normalised response shown
{"Molecule": "CC(O)(CS(=O)(=O)c1ccc(F)cc1)C(=O)Nc1ccc(C#N)c(C(F)(F)F)c1 (stereo not drawn) [Bicalutamide] (10000 nM)", "Endpoint name": "normalised response", "Observed value": 67.6}
{"Molecule": "CCNC(=O)CCC/C=C\\C[C@@H]1[C@@H](/C=C/[C@@H](O)CCc2ccccc2)[C@H](O)C[C@@H]1O [Bimatoprost] (550 nM)", "Endpoint name": "normalised response", "Observed value": 93.9}
{"Molecule": "Cc1cn(-c2cc(NC(=O)c3ccc(C)c(Nc4nccc(-c5cccnc5)n4)c3)cc(C(F)(F)F)c2)cn1 [Nilotinib] (1000 nM)", "Endpoint name": "normalised response", "Observed value": 101}
{"Molecule": "CC[C@H](CO)Nc1nc(NCc2ccccc2)c2ncn(C(C)C)c2n1 [Seliciclib] (1000 nM)", "Endpoint name": "normalised response", "Observed value": 95.5}
{"Molecule": "CO[C@@H]1[C@H](N(C)C(=O)c2ccccc2)C[C@H]2O[C@]1(C)n1c3ccccc3c3c4c(c5c6ccccc6n2c5c31)C(=O)NC4 [Midostaurin] (10000 nM)", "Endpoint name": "normalised response", "Observed value": 97.5}
{"Molecule": "O=[N+]([O-])c1ccc2c(c1)S(=O)(=O)C=C2 [Stattic] (5000 nM)", "Endpoint name": "normalised response", "Observed value": -36.1}
{"Molecule": "CC(=O)[C@]1(O)Cc2c(O)c3c(c(O)c2[C@@H](O[C@H]2C[C@H](N)[C@H](O)[C@H](C)O2)C1)C(=O)c1ccccc1C3=O [Idarubicin] (1000 nM)", "Endpoint name": "normalised response", "Observed value": -10.6}
{"Molecule": "Cn1cc(C2=C(c3cn(C4CCN(Cc5ccccn5)CC4)c4ccccc34)C(=O)NC2=O)c2ccccc21 [Enzastaurin] (10000 nM)", "Endpoint name": "normalised response", "Observed value": 65}

Which normalised response is reported for this molecule? CNC(=O)c1ccccc1Sc1ccc2c(/C=C/c3ccccn3)n[nH]c2c1 [Axitinib] (100 nM)
104

Given CC(C)(C)NC(=O)[C@H]1CC[C@H]2[C@@H]3CC[C@H]4NC(=O)C=C[C@]4(C)[C@H]3CC[C@]12C [Finasteride] (100 nM) , state its recorded normalised response.
100

Given the entry C/C(=C\c1csc(C)n1)[C@@H]1C[C@@H]2O[C@]2(C)CCC[C@H](C)[C@H](O)[C@@H](C)C(=O)C(C)(C)[C@@H](O)CC(=O)N1 [Ixabepilone] (1000 nM) , report its measured normalised response.
14.6

Please give the measured normalised response for this molecule: CO[C@@]12[C@H](COC(N)=O)C3=C(C(=O)C(C)=C(N)C3=O)N1C[C@@H]1N[C@@H]12 [Mitomycin C] (1000 nM)
97.6

Bench note: what normalised response did CN(C)C(=N)NC(=N)N [Metformin] (10000 nM) show?
98

Need normalised response of Cc1nc(C(=O)NCC(=O)O)c(O)c2ccc(Oc3ccccc3)cc12 [FG-4592] (100 nM) , thanks.
103

Give its normalised response value. Item: CN(Cc1cnc2nc(N)nc(N)c2n1)c1ccc(C(=O)N[C@@H](CCC(=O)O)C(=O)O)cc1 [Methotrexate] (50000 nM)
64.1

Consider the molecule Nc1ccn([C@@H]2O[C@H](CO)[C@@H](O)C2(F)F)c(=O)n1 [Gemcitabine] (1000 nM) and give its measured normalised response.
73

Give the measured normalised response of CCn1c(C(=O)N(C2CC2)C2CC2)cc2c3c(ncn3C)c(Nc3cc(C)n(C)n3)nc21 (100 nM) .
108

Consider the molecule shown here: CN(Cc1cnc2nc(N)nc(N)c2n1)c1ccc(C(=O)N[C@@H](CCC(=O)O)C(=O)O)cc1 [Methotrexate] (500 nM) What is its recorded normalised response?
98.4

Find the recorded normalised response belonging to CC(C)n1cnc2c(NCCc3ccc(O)cc3)nc(-c3csc4ccccc34)nc21 [StemRegenin 1] (10000 nM) and report it.
78.5

Given the entry CC(C)(C)NC(=O)[C@H]1CC[C@H]2[C@@H]3CC[C@H]4NC(=O)C=C[C@]4(C)[C@H]3CC[C@]12C [Finasteride] (10000 nM) , report its measured normalised response.
91.2

What does the data say about its normalised response? Entry: CC(C)(C)c1nc(-c2cccc(NS(=O)(=O)c3c(F)cccc3F)c2F)c(-c2ccnc(N)n2)s1 [Dabrafenib] (2500 nM)
83.9

// lookup normalised response for CO[C@@]12[C@H](COC(N)=O)C3=C(C(=O)C(C)=C(N)C3=O)N1C[C@@H]1N[C@@H]12 [Mitomycin C] (100 nM)
93.3

For the molecule CCNC(=O)c1noc(-c2cc(C(C)C)c(O)cc2O)c1-c1ccc(CN2CCOCC2)cc1 [NVP-AUY922] (10 nM) , what normalised response is on record?
73.1

Reference for the values: the supplement of paper PMC4862054
